Target: AAK1 kinase domain (31-396) (Homo sapiens)
Assay: TR-FRET ligand binding displacement assay, AAK1
Catalogue of compounds with associated pKi
// pKi here means minus log10 of the molar concentration (mol/L)

Examples with answers:
molecule: COc1cc(Nc2ccnc3ccc(C(F)(F)F)cc23)cc(OC)c1OC
pKi: 4.27

molecule: COc1ccc(OC)c(Nc2ccnc3ccc(C(F)(F)F)cc23)c1
pKi: 4.10

molecule: COc1cc(Nc2ccnc3cc(F)ccc23)cc(OC)c1OC
pKi: 4.36

molecule: COc1ccc(Nc2ccnc3ccc(C(F)(F)F)cc23)cc1
pKi: 4.25

molecule: COc1ccc2c(Nc3cc(OC)c(OC)c(OC)c3)ccnc2c1
pKi: 4.24

molecule: COc1ccc(Nc2ccnc3ccc(C(F)(F)F)cc23)cc1OC
pKi: 4.62

molecule: COc1ccc(Nc2ccnc3ccc(C(F)(F)F)cc23)c(OC)c1
pKi: 4.15

molecule: COc1cc(Nc2ccnc3ccc(F)cc23)cc(OC)c1OC
pKi: 4.08

molecule: COc1cc2nccc(Nc3cccc(C(C)=O)c3)c2cc1OC
pKi: 6.59

molecule: C#Cc1cccc(Nc2ccnc3cc(OC)c(OC)cc23)c1
pKi: 6.05

The record that follows has no pKi shown yet.
Entry `COc1cc(Nc2ccnc3ccc(C(F)(F)F)cc23)cc(OC)c1` needs its pKi filled in; supply it.
4.47

----------
Target: AAK1 kinase domain (31-396) (Homo sapiens, UniProt Q2M2I8)
Sequence (Q2M2I8 31-396): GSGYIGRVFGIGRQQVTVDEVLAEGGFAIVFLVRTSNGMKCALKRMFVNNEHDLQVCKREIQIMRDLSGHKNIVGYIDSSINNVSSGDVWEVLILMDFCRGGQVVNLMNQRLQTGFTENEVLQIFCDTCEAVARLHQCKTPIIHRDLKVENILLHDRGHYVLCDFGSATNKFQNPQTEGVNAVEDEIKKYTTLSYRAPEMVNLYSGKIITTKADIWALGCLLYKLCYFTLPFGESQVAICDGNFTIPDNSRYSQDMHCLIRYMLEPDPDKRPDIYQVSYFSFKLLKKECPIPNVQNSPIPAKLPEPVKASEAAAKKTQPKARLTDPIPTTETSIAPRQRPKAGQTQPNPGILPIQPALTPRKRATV
Test: TR-FRET ligand binding displacement assay, AAK1
Details: read-out: Binding displacement assay Ki AAK1; TR-FRET, 16-point dose response
valueType: Ki

Entry COc1cc(Nc2ncnc3ccc(C(F)(F)F)cc23)cc(OC)c1 [Compound 14] needs its Ki filled in; supply it.
> 100 µM

----------
Biological target: STK16 kinase domain (13-305) (Homo sapiens)
Sequence (O75716 13-305): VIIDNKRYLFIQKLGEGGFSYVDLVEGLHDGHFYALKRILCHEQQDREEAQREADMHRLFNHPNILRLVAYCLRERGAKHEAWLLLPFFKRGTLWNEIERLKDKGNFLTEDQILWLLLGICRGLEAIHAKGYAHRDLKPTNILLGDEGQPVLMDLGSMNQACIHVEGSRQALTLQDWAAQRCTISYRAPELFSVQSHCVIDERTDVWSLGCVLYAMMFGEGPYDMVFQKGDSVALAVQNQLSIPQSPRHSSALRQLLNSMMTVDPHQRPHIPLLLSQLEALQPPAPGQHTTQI
Experiment: TR-FRET ligand binding displacement assay, STK16
valueType: pKi
// pKi here means minus log10 of the molar concentration (mol/L)

Examples with answers:
molecule: C#Cc1cccc(Nc2ccnc3cc(OC)c(OC)cc23)c1
system: STK16 kinase domain (13-305) (Homo sapiens)
observedValue: 4.72

molecule: COc1cc(Nc2ccnc3ccc(C(F)(F)F)cc23)cc(OC)c1OC
system: STK16 kinase domain (13-305) (Homo sapiens)
observedValue: 4.77

molecule: COc1ccc(OC)c(Nc2ccnc3ccc(C(F)(F)F)cc23)c1
system: STK16 kinase domain (13-305) (Homo sapiens)
observedValue: 4.24

molecule: COc1cc2nccc(Nc3cccc(C(C)=O)c3)c2cc1OC
system: STK16 kinase domain (13-305) (Homo sapiens)
observedValue: 5.82

The record that follows has no pKi shown yet.
Entry `COc1ccc(Nc2ccnc3ccc(C(F)(F)F)cc23)cc1` needs its pKi filled in; supply it.
4.72

----------
Biological target: BMP2K kinase domain (38-345) (Homo sapiens, UniProt Q9NSY1)
Sequence (Q9NSY1 38-345): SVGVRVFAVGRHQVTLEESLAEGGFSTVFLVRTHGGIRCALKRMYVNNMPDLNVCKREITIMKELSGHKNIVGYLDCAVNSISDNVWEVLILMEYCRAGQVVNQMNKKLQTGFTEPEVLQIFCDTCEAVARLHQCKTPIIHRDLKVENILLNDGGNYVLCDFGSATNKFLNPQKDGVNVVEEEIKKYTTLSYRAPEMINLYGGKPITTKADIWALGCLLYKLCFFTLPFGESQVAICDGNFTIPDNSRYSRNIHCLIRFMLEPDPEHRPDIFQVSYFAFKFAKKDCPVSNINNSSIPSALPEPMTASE
Assay: TR-FRET ligand binding displacement assay, BMP2K
valueType: Ki

Examples with answers:
compound: COc1cc(Nc2ccnc3ccccc23)cc(OC)c1OC [Compound 41]
Ki: > 100 µM

compound: COc1ccc(OC)c(Nc2ccnc3ccc(C(F)(F)F)cc23)c1 [Compound 7]
Ki: > 100 µM

Entry COc1ccc2nccc(Nc3cc(OC)c(OC)c(OC)c3)c2c1 [Compound 48] needs its Ki filled in; supply it.
> 100 µM

Entry COc1ccc(Nc2ccnc3ccc(C(F)(F)F)cc23)c(OC)c1 [Compound 6] needs its Ki filled in; supply it.
> 100 µM

Entry COc1cc2nccc(Nc3cccc(C(C)=O)c3)c2cc1OC [Compound 56] needs its Ki filled in; supply it.
0.68 µM

Entry C#Cc1cccc(Nc2ccnc3cc(OC)c(OC)cc23)c1 [Compound 55] needs its Ki filled in; supply it.
2.4 µM

Entry COc1ccc2c(Nc3cc(OC)c(OC)c(OC)c3)ccnc2c1 [Compound 50] needs its Ki filled in; supply it.
> 100 µM

Entry COc1cc(Nc2ccnc3ccc(C(C)(C)C)cc23)cc(OC)c1OC [Compound 45] needs its Ki filled in; supply it.
> 100 µM

----------
Target: GAK kinase domain (12-347) (Homo sapiens)
Sequence (O14976 12-347): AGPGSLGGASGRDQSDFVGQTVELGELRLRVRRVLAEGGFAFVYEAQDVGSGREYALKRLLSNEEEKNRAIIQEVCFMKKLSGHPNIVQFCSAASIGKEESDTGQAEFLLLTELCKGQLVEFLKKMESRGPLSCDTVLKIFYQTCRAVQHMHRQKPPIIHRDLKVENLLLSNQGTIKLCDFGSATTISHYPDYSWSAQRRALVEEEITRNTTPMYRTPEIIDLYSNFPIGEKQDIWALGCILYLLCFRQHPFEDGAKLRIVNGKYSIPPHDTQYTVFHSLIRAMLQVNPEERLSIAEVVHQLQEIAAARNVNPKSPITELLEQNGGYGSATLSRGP
Assay: TR-FRET ligand binding displacement assay, GAK
Settings: selectivity against the nearest NAK family member
Catalogue of compounds with associated NAK selectivity (ratio of GAK Ki and Ki of nearest NAK family member)
Lab note: jot down the number only; don't add units.

Examples with answers:
molecule: COc1ccc(OC)c(Nc2ccnc3ccc(C(F)(F)F)cc23)c1
observedValue: 420

molecule: COc1ccc(Nc2ccnc3ccc(C(F)(F)F)cc23)cc1
observedValue: 26

molecule: C#Cc1cccc(Nc2ccnc3cc(OC)c(OC)cc23)c1
observedValue: 260

The record that follows has no NAK selectivity (ratio of GAK Ki and Ki of nearest NAK family member) shown yet.
Send back GAK kinase domain (12-347) (Homo sapiens) NAK selectivity (ratio of GAK Ki and Ki of nearest NAK family member) of `FC(F)(F)c1ccc2nccc(Nc3ccc4c(c3)OCCO4)c2c1` only.
14

----------
Catalogue of compounds with associated Ki
Target: BMP2K kinase domain (38-345) (Homo sapiens, UniProt Q9NSY1)
Experiment: TR-FRET ligand binding displacement assay, BMP2K

Examples with answers:
molecule: COc1cc(Nc2ccnc3cc(F)cc(F)c23)cc(OC)c1OC
observedValue: > 100 µM

molecule: FC(F)(F)c1ccc2nccc(Nc3ccc4c(c3)OCCO4)c2c1
observedValue: 56 µM

molecule: COc1ccccc1Nc1ccnc2ccc(C(F)(F)F)cc12
observedValue: 11 µM

Send back BMP2K kinase domain (38-345) (Homo sapiens, UniProt Q9NSY1) Ki of `COc1ccc(Nc2ncnc3ccc(C(F)(F)F)cc23)cc1` only.
> 100 µM

Send back BMP2K kinase domain (38-345) (Homo sapiens, UniProt Q9NSY1) Ki of `COc1cc(Nc2ccnc3cc(C#N)ccc23)cc(OC)c1OC` only.
> 100 µM

Send back BMP2K kinase domain (38-345) (Homo sapiens, UniProt Q9NSY1) Ki of `COc1cc(Nc2ccnc3cc(F)ccc23)cc(OC)c1OC` only.
> 100 µM

----------
Biological target: BMP2K kinase domain (38-345) (Homo sapiens, UniProt Q9NSY1)
Assay: TR-FRET ligand binding displacement assay, BMP2K
valueType: pKi
// pKi here means minus log10 of the molar concentration (mol/L)

molecule: COc1ccc(Nc2ccnc3ccc(C(F)(F)F)cc23)cc1OC
pKi: 4.36

Entry `COc1ccc(Nc2ccnc3ccc(C(F)(F)F)cc23)cc1` needs its pKi filled in; supply it.
4.12

Entry `COc1cc(Nc2ccnc3ccc(C(F)(F)F)cc23)cc(OC)c1` needs its pKi filled in; supply it.
4.07

----------
Molecular target: BMP2K kinase domain (38-345) (Homo sapiens, UniProt Q9NSY1)
Test: TR-FRET ligand binding displacement assay, BMP2K
Catalogue of compounds with associated Ki

Examples with answers:
molecule: COc1cc(Nc2ccnc3ccc(S(C)(=O)=O)cc23)cc(OC)c1OC
Ki: > 100 µM
//
molecule: COc1cc(Nc2ccnc3ccc(C(F)(F)F)cc23)cc(OC)c1OC
Ki: > 100 µM

The record that follows has no Ki shown yet.
Entry `COc1cc(Nc2ccnc3ccc(F)cc23)cc(OC)c1OC` needs its Ki filled in; supply it.
> 100 µM

All values here come from paper PMC5914168.
